Entry source: ChEMBL document CHEMBL5724914

Experiment: The drug is tested on Z-010 corresponding to metagenome with ENA study accession number: PRJEB37062 and ENA sample accession number: ERS12561810 for biotransformation under anaerobic condition. The drug concentrations were measured over 9 timepoints collected between 0 and 24 hours of incubation by liquid-chromatography-coupled mass spectrometry (LC–MS); also: call rule not given here
Conditions: 2 µM
quantity: Bacterial Biotransformation

Worked cases, Bacterial Biotransformation given:
Give reported Bacterial Biotransformation value for `C=CCN1CC[C@]23c4c5ccc(O)c4O[C@H]2C(=O)CC[C@@]3(O)[C@H]1C5` Compound NOT metabolized

Give Bacterial Biotransformation for `CC(=O)OCC(=O)[C@@]12N=C(C)O[C@@H]1C[C@H]1[C@@H]3CCC4=CC(=O)C=C[C@]4(C)[C@H]3[C@@H](O)C[C@@]12C` Compound metabolized

Look up Bacterial Biotransformation of CCCC(=O)Nc1ccc(OCC(O)CNC(C)C)c(C(C)=O)c1 (configuration not stated) and report it. Compound NOT metabolized

Quote Bacterial Biotransformation reported for `O=C(CCCN1CCC(O)(c2ccc(Cl)cc2)CC1)c1ccc(F)cc1` please. Compound NOT metabolized

Look up and state reported Bacterial Biotransformation for `CCOC(=O)[C@H](CCc1ccccc1)N[C@@H](C)C(=O)N1[C@H](C(=O)O)C[C@@H]2CCC[C@@H]21` Compound metabolized

Further cases:
Give the measured Bacterial Biotransformation for `Cc1cc2c(cc1S(N)(=O)=O)S(=O)(=O)CCC2` Compound NOT metabolized

Supply measured Bacterial Biotransformation of `Nc1ccc(/N=N/c2ccccc2)c(N)n1` in your reply. Compound metabolized

Tell me Bacterial Biotransformation reported for CN(C)CC(c1ccc(O)cc1)C1(O)CCCCC1.O=C(O)CCC(=O)O (configuration not stated) [DESVENLAFAXINE SUCCINATE] Compound NOT metabolized

Please list Bacterial Biotransformation recorded for the compound `Cc1ccc(-c2cc(C(F)(F)F)nn2-c2ccc(S(N)(=O)=O)cc2)cc1` Compound NOT metabolized

Complete the entry with Bacterial Biotransformation for `CCCCc1nc(Cl)c(CO)n1Cc1ccc(-c2ccccc2-c2nn[nH]n2)cc1` Compound NOT metabolized

Let me know recorded Bacterial Biotransformation for NC(CO)(CO)CO.O=C(c1ccccc1)c1ccc2n1CCC2C(=O)O (configuration not stated) , thanks. Compound metabolized

Hello, please tell me recorded Bacterial Biotransformation for this one: `Nc1c2c(nc3ccccc13)CCCC2` Compound NOT metabolized

Given the compound CC(C)NCC(O)COc1ccc(COCCOC(C)C)cc1.CC(C)NCC(O)COc1ccc(COCCOC(C)C)cc1.O=C(O)/C=C/C(=O)O (configuration not stated) [BISOPROLOL FUMARATE] , write its reported Bacterial Biotransformation. Compound NOT metabolized

Give Bacterial Biotransformation for `O=C(O)CCc1nc(-c2ccccc2)c(-c2ccccc2)o1` Compound metabolized
